All figures here come from patent US20240327502A1.

- Substrate: F protein of hMPV A virus (human metapneumovirus subtype A)
- measurementNotes: cell-based or functional assay
endpoint: PRNT IC50 (µg/mL)
Give the quantity in µg/mL, number only.

Solved cases below.
binder: M4A02 (antibody, V domains shown) VH: EVQLVESGGGLVEPGGSLRLSCAASGFMFTSYAMHWVRQAPGRGLEWVSSITGGGNFVEYAVSVQGRFTVSRDNNQNSLYLQMNSLRVEDTAMYYCAREDYNSGANLHWFDPWGQGTLVTVSS VL: QSVLTQPPSVSGAPGQRVTISCTGSSSNIGAFFDVHWYSHLPGTAPKLLIYGDRNRPSGVPERFSGSKSGASASLTITGLRAEDEADYYCQSYDRGLSAWVFGGGTRVTVL
unitTag: µg/mL
assayResult: 0.186

binder: M2E06 (antibody, V domains shown) VH: EVQLVESGGDLVQPGGSLRLSCEASAFTFSDYAMTWVRQAPGKGLEWVSSINTSGGRTYYADSVKGRFTISRDNSKNTLYLQMKSLRAEDTAVYFCARFFYVMDVWGQGTTVTVSS VL: AIQMTQSPSSLSASVGDRVTITCRASQGVRNDLGWYQQKPGKAPKLLINAASGLQSGVPSRFSGSGSDTDFTLTISSLQPEDFATYYCLQVYSYPFTFGPGTKVDIK
unitTag: µg/mL
assayResult: 0.105

binder: M3D12 (antibody, V domains shown) VH: QVQLQESGPGLVKPSQTLSLTCTVSGASVSSEYYYWSWIRQPPGKGLEWIGYIYHNGDTYYNPSLKGRGIISMDTSKNQFSLKLISVTAADTAVYYCARLAVAGVTGFHYWGLGTLVTVSS VL: EIVLTQSPDTLSLSPGERATLSCRASRSVRNYLAWYQQKPGQAPRLLIYDASNRAPGIPARFSGSGSETDFTLTISSLEPEDFAVYYCQQRSNWGLTFGGGTKVEIK
unitTag: µg/mL
assayResult: 0.0231

binder: M4A08 (antibody, V domains shown) VH: EVQLVESGGALVRPGGSLRVSCEASGFNFRTHWMHWVRQAPGKGLVWVARTNGDGSVTNYADSVKGRFTFFRDNAKNTLFLQMTSLRVDDTAVYYCARERLDYSSTRGHFPGDFDSWGQGTLVTVSS VL: DIVMTQSPDSLAVSLGERATINCKSSESVLYTSNSKNYLAWYQQKPGHPPKVLIYWASTRESGVPDRFSGSGSGTDFSLSISSLQAEDVAVYYCQQYFTIPRTFGQGTKVEIK
unitTag: µg/mL
assayResult: 0.136

Turning now to a further binder:
Input M2A09 (antibody, V domains shown) VH: QVQLVQSGAGVRKPGSSVKVSCKASGGTFSNYIISWVRQAPGQGLEYIGRIIPIVGMEKYEEKFQGRVKITADESTSTVSMELTSLKSEDTATYYCATEGLESGYPPYLEHWGRGTLVIVSS VL: EIVLTQSPGTLSLSPGERATLSCRTSQTVGAHLAWYQQKPGQSPRLLIYGASSRATGIPDRFSGSGSGTVFTLTINRLEPEDLAVYYCQQYGASPPTFGQGTKVEIK . Output PRNT IC50: 0.0133
